The origin of these recorded values is paper PMC5290327.

Experiment: PK study
Type: in vivo, rat
Conditions: plasma, iv; rat i.v. 2 mg kg^−1
quantity measured: Tmax (min)
Return type: number; implicit unit min.

### Prompt Which Tmax is reported for this compound? COC(=O)N1CCN(C(=N)c2cccc(NC(=O)Nc3ccc(S(=O)(=O)NCc4ccc(S(N)(=O)=O)cc4)cc3)c2)CC1
### Response 5

###

Assay: PK study
Type: in vivo, mouse
Conditions: plasma, iv; mouse i.v. 2 mg kg^−1
quantity measured: Cmax (ng/mL)
Return type: number; implicit unit ng/mL.

### Prompt Which Cmax is reported for this compound? COC(=O)N1CCN(C(=N)c2cccc(NC(=O)Nc3ccc(S(=O)(=O)NCc4ccc(S(N)(=O)=O)cc4)cc3)c2)CC1
### Response 2560
